TESTED SYSTEM: T1, soluble fusion protein comprising a DEC-205 extracellular domain (comprising all ten lectin-binding domains) … (human, UniProt O60449 28-1666)
T1 construct: not shown: antibody Fc domain
T1 sequence (O60449 28-1666 K1321N/Y1391H): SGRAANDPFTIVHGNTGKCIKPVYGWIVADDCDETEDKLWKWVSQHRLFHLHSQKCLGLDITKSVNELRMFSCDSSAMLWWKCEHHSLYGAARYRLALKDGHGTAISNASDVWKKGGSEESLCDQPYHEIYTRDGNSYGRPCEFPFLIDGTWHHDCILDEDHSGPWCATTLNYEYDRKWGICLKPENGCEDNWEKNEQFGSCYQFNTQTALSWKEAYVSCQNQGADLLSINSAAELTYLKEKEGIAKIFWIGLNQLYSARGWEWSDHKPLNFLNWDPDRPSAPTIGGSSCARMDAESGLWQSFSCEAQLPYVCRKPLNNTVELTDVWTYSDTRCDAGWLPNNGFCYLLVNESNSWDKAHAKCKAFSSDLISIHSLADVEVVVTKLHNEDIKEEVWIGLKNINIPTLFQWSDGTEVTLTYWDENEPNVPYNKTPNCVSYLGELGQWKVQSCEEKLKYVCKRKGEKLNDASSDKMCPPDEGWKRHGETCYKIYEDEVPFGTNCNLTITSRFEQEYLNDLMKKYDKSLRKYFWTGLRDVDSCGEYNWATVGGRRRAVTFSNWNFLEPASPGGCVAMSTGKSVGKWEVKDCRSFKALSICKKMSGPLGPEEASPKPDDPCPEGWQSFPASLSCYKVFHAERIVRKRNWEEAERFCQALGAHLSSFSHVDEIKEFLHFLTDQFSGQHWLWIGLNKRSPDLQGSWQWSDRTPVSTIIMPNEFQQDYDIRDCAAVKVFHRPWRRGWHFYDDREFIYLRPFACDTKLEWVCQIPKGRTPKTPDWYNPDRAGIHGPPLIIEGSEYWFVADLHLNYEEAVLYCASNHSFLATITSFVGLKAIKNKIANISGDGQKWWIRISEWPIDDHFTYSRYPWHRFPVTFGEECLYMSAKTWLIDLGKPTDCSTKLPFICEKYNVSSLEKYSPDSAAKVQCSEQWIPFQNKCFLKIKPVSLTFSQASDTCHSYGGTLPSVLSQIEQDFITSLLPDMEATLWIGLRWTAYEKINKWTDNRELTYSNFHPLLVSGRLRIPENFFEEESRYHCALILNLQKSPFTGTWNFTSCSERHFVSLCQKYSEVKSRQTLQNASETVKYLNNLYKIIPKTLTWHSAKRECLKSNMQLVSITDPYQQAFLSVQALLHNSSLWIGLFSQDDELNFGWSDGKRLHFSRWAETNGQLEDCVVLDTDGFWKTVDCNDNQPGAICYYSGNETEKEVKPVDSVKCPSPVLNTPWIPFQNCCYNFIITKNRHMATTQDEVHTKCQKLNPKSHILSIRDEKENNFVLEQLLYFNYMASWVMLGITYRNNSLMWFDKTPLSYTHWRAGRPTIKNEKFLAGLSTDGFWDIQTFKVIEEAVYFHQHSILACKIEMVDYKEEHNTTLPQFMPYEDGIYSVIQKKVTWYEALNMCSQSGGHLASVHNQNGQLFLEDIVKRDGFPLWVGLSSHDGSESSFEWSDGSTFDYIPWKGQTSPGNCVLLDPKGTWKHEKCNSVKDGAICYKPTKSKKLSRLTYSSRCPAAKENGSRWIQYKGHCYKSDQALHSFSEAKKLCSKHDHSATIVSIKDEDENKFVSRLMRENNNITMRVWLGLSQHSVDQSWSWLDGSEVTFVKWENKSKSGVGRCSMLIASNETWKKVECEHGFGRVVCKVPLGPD
ASSAY REMARKS: SPR (Biacore 2000), DEC-205 fusion protein amine-coupled to CM5 chip, antibody flowed at 1.25-200 nM, 1:1 Langmuir fit, mean of two series
PROPERTY MEASURED: koff (s⁻¹)
Write it as a number; the unit s⁻¹ goes unstated.

Recall and state the measured koff for 5A8-1F1 (antibody, V domains shown, Human IgG (kappa) from a hybridoma, protein A purified; also called mAb #2; HuMab 5A8-1F1) VH: QVQLVESGGGVVQPGRSLRLSCAASGFTFSTYGMHWVRQAPGKGLEWVAIIWYDGGNKYYADSVKGRFTISRDNSKNTLYLQMNSLRAEDTAVYYCARDFYWYFDLWGRGTLVTVSS VL: EIVLTQSPATLSLSPGERATLSCRASQSVSSYLAWYQQKPGQAPRLLIYDASNRATGIPARFSGSGSGTDFTLTISSLEPEDFAVYYCQQRRTFGQGTKVEIK .
0.0002
